- Tested on: L. acidophilus NCFM
- experiment: RNA-seq transcriptional analysis of L. acidophilus NCFM growing on plant glycosides
- Type: cell-based, Lactobacillus acidophilus
- conditions: gene LBA1469 (UDP-glucose 4-epimerase)
recordedEndpoint: Log2 differential normalized TPM ratio compared to glucose

1. O=c1ccc2cc(O[C@@H]3O[C@H](CO)[C@@H](O)[C@H](O)[C@H]3O)c(O)cc2o1 [Esculin] : 2.1
2. OC[C@H]1O[C@@H](O[C@H]2[C@H](O)[C@@H](O)[C@@H](O)O[C@@H]2CO)[C@H](O)[C@@H](O)[C@H]1O [Lac] : 5

In: Provide value of Log2 differential normalized TPM ratio compared to glucose for this record tested with L. acidophilus NCFM: OCc1ccccc1O[C@@H]1O[C@H](CO)[C@@H](O)[C@H](O)[C@H]1O [Salicin]
Out: 1.4

In: Observed Log2 differential normalized TPM ratio compared to glucose on L. acidophilus NCFM for N#C[C@H](O[C@@H]1O[C@H](CO[C@@H]2O[C@H](CO)[C@@H](O)[C@H](O)[C@H]2O)[C@@H](O)[C@H](O)[C@H]1O)c1ccccc1 [Amygdalin] , please.
Out: 2.4

###

The entries below come with measured Transcripts per million (rpm) values attached.
- System: L. acidophilus NCFM
- experiment: RNA-seq transcriptional analysis of L. acidophilus NCFM growing on plant glycosides
- Type: cell-based, Lactobacillus acidophilus
- conditions: LBA1482 Ribose ABC transporter, COG G
Report the figure in rpm without appending any unit label.

Solved cases (3 shown):
1) OCc1ccccc1O[C@@H]1O[C@H](CO)[C@@H](O)[C@H](O)[C@H]1O : 6.1
2) O=c1ccc2cc(O[C@@H]3O[C@H](CO)[C@@H](O)[C@H](O)[C@H]3O)c(O)cc2o1 : 8.1
3) N#C[C@H](O[C@@H]1O[C@H](CO[C@@H]2O[C@H](CO)[C@@H](O)[C@H](O)[C@H]2O)[C@@H](O)[C@H](O)[C@H]1O)c1ccccc1 : 32.6

# ---- query molecule ----
In: Can you look up the measured Transcripts per million (rpm) of OC[C@H]1O[C@@H](O[C@H]2[C@H](O)[C@@H](O)[C@@H](O)O[C@@H]2CO)[C@H](O)[C@@H](O)[C@H]1O for me?
Out: 7.9

###

- System: L. acidophilus NCFM
- experiment: RNA-seq transcriptional analysis of L. acidophilus NCFM growing on plant glycosides
- Format: cell-based, Lactobacillus acidophilus
- conditions: gene LBA0728 (Hypothetical protein LBA0728)
recordedEndpoint: Log2 differential normalized TPM ratio compared to glucose
// no unit string in output, number only

Worked cases, answers included:
1. OC[C@H]1O[C@@H](O[C@H]2[C@H](O)[C@@H](O)[C@@H](O)O[C@@H]2CO)[C@H](O)[C@@H](O)[C@H]1O : 1.8
2. OCc1ccccc1O[C@@H]1O[C@H](CO)[C@@H](O)[C@H](O)[C@H]1O : 4.1
3. O=c1ccc2cc(O[C@@H]3O[C@H](CO)[C@@H](O)[C@H](O)[C@H]3O)c(O)cc2o1 : 4.8

Proceeding to the next compound to report its Log2 differential normalized TPM ratio compared to glucose.
In: Give its Log2 differential normalized TPM ratio compared to glucose value. Item: N#C[C@H](O[C@@H]1O[C@H](CO[C@@H]2O[C@H](CO)[C@@H](O)[C@H](O)[C@H]2O)[C@@H](O)[C@H](O)[C@H]1O)c1ccccc1
Out: 6
